TARGET_SYSTEM: 5-hydroxytryptamine receptor 1A (Rattus norvegicus, UniProt P19327)
Sequence (P19327 whole entry): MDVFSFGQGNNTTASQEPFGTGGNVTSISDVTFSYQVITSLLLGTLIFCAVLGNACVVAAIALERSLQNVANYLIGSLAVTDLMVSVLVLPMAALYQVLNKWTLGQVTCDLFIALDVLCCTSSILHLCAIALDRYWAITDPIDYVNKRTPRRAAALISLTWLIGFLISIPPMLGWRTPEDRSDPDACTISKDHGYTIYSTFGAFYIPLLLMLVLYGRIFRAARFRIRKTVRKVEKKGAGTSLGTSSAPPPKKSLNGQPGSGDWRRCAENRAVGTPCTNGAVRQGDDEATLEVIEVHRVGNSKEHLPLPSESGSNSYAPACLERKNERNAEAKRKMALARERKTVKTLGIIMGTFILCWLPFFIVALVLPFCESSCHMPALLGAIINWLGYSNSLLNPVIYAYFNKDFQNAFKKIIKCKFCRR
REPORTED_METRIC: Ki (nM)
Output spec: scalar in nM, unitless text.

Prompt line: Lab note: need Ki for "COc1ccc(CCCCNCCOc2cc(F)cc3c2OCCC3=O)c2ccccc12" on 5-hydroxytryptamine receptor 1A (Rattus norvegicus, UniProt P19327), anyone have it?
Response line: 680

Prompt line: Lab note: need Ki for COc1ccc(CCCCNCCOc2cc(F)cc3c2OCCC3O)cc1 (stereo in doubt; (-)-34) on 5-hydroxytryptamine receptor 1A (Rattus norvegicus, UniProt P19327), anyone have it?
Response line: 0.31

Prompt line: Lab note: need Ki for "O=C1CCOc2c(OCCNCCCCc3ccc([N+](=O)[O-])cc3)cc(F)cc21" on 5-hydroxytryptamine receptor 1A (Rattus norvegicus, UniProt P19327), anyone have it?
Response line: 19.3

Prompt line: Lab note: need Ki for "O=C1CCOc2c(OCCNCCCCc3ccc(Cl)cc3)cc(F)cc21" on 5-hydroxytryptamine receptor 1A (Rattus norvegicus, UniProt P19327), anyone have it?
Response line: 19

Prompt line: Lab note: need Ki for COc1ccc(CCCCCNCCOc2cc(F)cc3c2OC(C)CC3)cc1 (stereo not drawn) on 5-hydroxytryptamine receptor 1A (Rattus norvegicus, UniProt P19327), anyone have it?
Response line: 7.33

Prompt line: Lab note: need Ki for "CSc1ccc(CCCCNCCOc2cc(F)cc3c2OCCC3=O)cc1" on 5-hydroxytryptamine receptor 1A (Rattus norvegicus, UniProt P19327), anyone have it?
Response line: 18.4

Prompt line: Lab note: need Ki for "O=C1CCOc2c(OCCNCCCCc3ccc4c(c3)OCCO4)cc(F)cc21" on 5-hydroxytryptamine receptor 1A (Rattus norvegicus, UniProt P19327), anyone have it?
Response line: 2.6

Prompt line: Lab note: need Ki for "CCCOc1ccc(CCCCNCCOc2cc(F)cc3c2OCCC3=O)cc1" on 5-hydroxytryptamine receptor 1A (Rattus norvegicus, UniProt P19327), anyone have it?
Response line: 48.8

----------
TARGET_SYSTEM: D(2) dopamine receptor (Rattus norvegicus)
Sequence (P61169 whole entry): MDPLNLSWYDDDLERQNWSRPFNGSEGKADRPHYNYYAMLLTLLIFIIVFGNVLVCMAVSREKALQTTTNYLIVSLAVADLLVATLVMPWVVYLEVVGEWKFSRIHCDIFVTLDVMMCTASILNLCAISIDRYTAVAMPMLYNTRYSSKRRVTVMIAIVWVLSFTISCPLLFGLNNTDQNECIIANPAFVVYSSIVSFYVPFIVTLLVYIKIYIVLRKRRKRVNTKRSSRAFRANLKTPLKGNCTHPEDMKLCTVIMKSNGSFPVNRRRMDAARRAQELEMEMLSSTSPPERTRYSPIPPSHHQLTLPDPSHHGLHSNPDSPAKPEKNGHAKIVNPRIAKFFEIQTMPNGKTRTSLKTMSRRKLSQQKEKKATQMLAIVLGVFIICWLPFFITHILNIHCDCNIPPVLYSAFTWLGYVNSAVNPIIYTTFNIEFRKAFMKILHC
PROTOCOL_TEXT: Binding affinity against dopamine receptor D2 on rat striatum using [3H]spiperone as radioligand.
REPORTED_METRIC: pKi
By convention, pKi is the negative base-10 log of a molar concentration.

Prompt line: Which pKi reading was recorded for the compound "CSc1ccc(CCCCNCCOc2cc(F)cc3c2OCCC3=O)cc1" ?
Response line: 7.41

Prompt line: Which pKi reading was recorded for the compound "COc1ccc(CCCCNCCOc2cc(F)cc3c2OCCC3=O)cc1" ?
Response line: 7.21

Prompt line: Which pKi reading was recorded for the compound "COc1ccccc1CCCCNCCOc1cc(F)cc2c1OCCC2=O" ?
Response line: 7.63

Prompt line: Which pKi reading was recorded for the compound COc1ccc(CCCCNCCOc2cc(F)cc3c2OCCC3OC)cc1 (stereo not drawn) ?
Response line: 8.04

Prompt line: Which pKi reading was recorded for the compound "COc1cccc(CCCCNCCOc2cc(F)cc3c2OCCC3=O)c1" ?
Response line: 6.95

Prompt line: Which pKi reading was recorded for the compound "N#Cc1ccc(CCCCNCCOc2cc(F)cc3c2OCCC3=O)cc1" ?
Response line: 7.15

Prompt line: Which pKi reading was recorded for the compound "O=C1CCOc2c(OCCNCCCCc3ccc4c(c3)OCO4)cc(F)cc21" ?
Response line: 7.38

Prompt line: Which pKi reading was recorded for the compound "COc1ccc(CCNCCOc2cc(F)cc3c2OCCC3=O)cc1" ?
Response line: 7.42

Prompt line: Which pKi reading was recorded for the compound "O=C1CCOc2c(OCCNCCCCc3ccc(Cl)cc3)cc(F)cc21" ?
Response line: 7.49

Prompt line: Which pKi reading was recorded for the compound COc1ccc(CCNCCOc2cc(F)cc3c2OC(C)CC3)cc1 (stereo not drawn) ?
Response line: 8.09

Prompt line: Which pKi reading was recorded for the compound "CN(C)c1ccc(CCCCNCCOc2cc(F)cc3c2OCCC3=O)cc1" ?
Response line: 7.46

Prompt line: Which pKi reading was recorded for the compound COc1ccc(CCCCNCCOc2cc(F)cc3c2OCCC3O)cc1 (single isomer, unassigned; (+)) ?
Response line: 9.32

Prompt line: Which pKi reading was recorded for the compound COc1ccc(CCCCNCCOc2cc(F)cc3c2OCCC3O)cc1 (stereo in doubt; 34) ?
Response line: 9.14

Prompt line: Which pKi reading was recorded for the compound COc1ccc(CCCCNCCOc2cc(F)cc3c2OCCC3O)cc1 (stereo in doubt; (-)-34) ?
Response line: 8.39

Prompt line: Which pKi reading was recorded for the compound "COc1ccc(CCCCNCCOc2cc(F)cc3c2OCC=C3)cc1" ?
Response line: 9.54

Prompt line: Which pKi reading was recorded for the compound COc1ccc(CCNCCOc2cc(F)cc3c2OCCC3O)cc1 (stereo not drawn) ?
Response line: 8.52

Prompt line: Which pKi reading was recorded for the compound "CCCN(CCCCc1ccc2c(c1)OCO2)CCOc1cc(F)cc2c1OCCC2=O" ?
Response line: 5.81

Prompt line: Which pKi reading was recorded for the compound "COc1ccc(CCCCNCCOc2cc(F)cc3c2OCC/C3=N/O)cc1" ?
Response line: 7.93

Prompt line: Which pKi reading was recorded for the compound "O=C1CCOc2c(OCCNCCCCc3ccc(O)cc3)cc(F)cc21" ?
Response line: 7.63

Prompt line: Which pKi reading was recorded for the compound "CCOc1ccc(CCCCNCCOc2cc(F)cc3c2OCCC3=O)cc1" ?
Response line: 7.26

Prompt line: Which pKi reading was recorded for the compound "COc1ccc(CCCCNCCOc2cc(F)cc3c2OC(C)(C)CC3)cc1" ?
Response line: 9.83

Prompt line: Which pKi reading was recorded for the compound "COc1ccc(CCCCNCCOc2cc(F)cc3c2OCCC3=O)c2ccccc12" ?
Response line: 6.82

Prompt line: Which pKi reading was recorded for the compound COc1ccc(CCCCNCCOc2cc(F)cc3c2OC(C)CC3)cc1 (stereo not drawn) ?
Response line: 9.51

----------
System: Rattus norvegicus
PROTOCOL_TEXT: In vivo antagonist activity was measured as forepaw treading(FT) in a behavioral response test in reserpinized rats upon subcutaneous administration
Format: functional
REPORTED_METRIC: Behavior score

Prompt line: Which Behavior score reading was recorded for the compound "O=C1CCOc2c(OCCNCCCCc3ccc4c(c3)OCO4)cc(F)cc21" ?
Response line: 7.8

Prompt line: Which Behavior score reading was recorded for the compound "O=C1CCOc2c(OCCNCCCCc3ccc4c(c3)CCO4)cc(F)cc21" ?
Response line: 10.1

Prompt line: Which Behavior score reading was recorded for the compound "COc1ccc(CCCCNCCOc2cc(F)cc3c2OCCC3)cc1" ?
Response line: 8.8

Prompt line: Which Behavior score reading was recorded for the compound "COc1ccc(CCCCNCCOc2cc(F)cc3c2OCCC3=O)cc1" ?
Response line: 10.2

Prompt line: Which Behavior score reading was recorded for the compound COc1ccc(CCCCNCCOc2cc(F)cc3c2OCCC3O)cc1 (stereo in doubt; 34) ?
Response line: 8.6

Prompt line: Which Behavior score reading was recorded for the compound "O=C1CCOc2c(OCCNCCCCc3ccc4c(c3)OCCO4)cc(F)cc21" ?
Response line: 7.7

Prompt line: Which Behavior score reading was recorded for the compound "COc1ccc(CCCCNCCOc2cc(F)cc3c2OCC=C3)cc1" ?
Response line: 11.8

----------
Would you mind telling me the reported FSC recovery of each entry?
TARGET_SYSTEM: UniProt:P08908
Sequence (P08908 whole entry): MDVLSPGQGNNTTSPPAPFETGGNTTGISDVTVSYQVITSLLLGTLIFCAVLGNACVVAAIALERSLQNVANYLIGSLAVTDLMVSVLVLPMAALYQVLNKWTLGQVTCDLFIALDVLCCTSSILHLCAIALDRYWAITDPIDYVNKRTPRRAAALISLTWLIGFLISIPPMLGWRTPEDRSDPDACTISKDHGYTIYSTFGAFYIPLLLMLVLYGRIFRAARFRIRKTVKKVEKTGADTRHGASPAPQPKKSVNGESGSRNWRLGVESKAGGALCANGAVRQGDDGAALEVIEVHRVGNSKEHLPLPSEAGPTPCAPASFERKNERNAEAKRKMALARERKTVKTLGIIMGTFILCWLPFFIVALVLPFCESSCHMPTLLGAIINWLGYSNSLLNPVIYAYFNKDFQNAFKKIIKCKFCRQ
PROTOCOL_TEXT: Antagonist activity against CHO cells expressing the human 5-hydroxytryptamine 1A receptor in a forskolin stimulated adenylate cyclase (FSC) assay.
Type: functional, cell-based
Output spec: scalar in %, unitless text.

Prompt line: Which FSC recovery reading was recorded for the compound "CSc1ccc(CCCCNCCOc2cc(F)cc3c2OCCC3=O)cc1" ?
Response line: 49

Prompt line: Which FSC recovery reading was recorded for the compound "O=C1CCOc2c(OCCNCCCCc3ccc(O)cc3)cc(F)cc21" ?
Response line: 26

Prompt line: Which FSC recovery reading was recorded for the compound "O=C1CCOc2c(OCCNCCCCc3ccc(Cl)cc3)cc(F)cc21" ?
Response line: 30

Prompt line: Which FSC recovery reading was recorded for the compound "COc1ccc(CCCCNCCOc2cc(F)cc3c2OCC/C3=N/O)cc1" ?
Response line: 83

Prompt line: Which FSC recovery reading was recorded for the compound "O=C1CCOc2c(OCCNCCCCc3ccc4c(c3)OCO4)cc(F)cc21" ?
Response line: 55

Prompt line: Which FSC recovery reading was recorded for the compound "COc1ccc(CCCCN(C)CCOc2cc(F)cc3c2OCCC3=O)cc1" ?
Response line: 10
